Numbers sourced from paper doi:10.1101/2023.08.16.553474.

# measured on: MYCN FL (UniProt P04198 1-464)
# Sequence (P04198 whole entry): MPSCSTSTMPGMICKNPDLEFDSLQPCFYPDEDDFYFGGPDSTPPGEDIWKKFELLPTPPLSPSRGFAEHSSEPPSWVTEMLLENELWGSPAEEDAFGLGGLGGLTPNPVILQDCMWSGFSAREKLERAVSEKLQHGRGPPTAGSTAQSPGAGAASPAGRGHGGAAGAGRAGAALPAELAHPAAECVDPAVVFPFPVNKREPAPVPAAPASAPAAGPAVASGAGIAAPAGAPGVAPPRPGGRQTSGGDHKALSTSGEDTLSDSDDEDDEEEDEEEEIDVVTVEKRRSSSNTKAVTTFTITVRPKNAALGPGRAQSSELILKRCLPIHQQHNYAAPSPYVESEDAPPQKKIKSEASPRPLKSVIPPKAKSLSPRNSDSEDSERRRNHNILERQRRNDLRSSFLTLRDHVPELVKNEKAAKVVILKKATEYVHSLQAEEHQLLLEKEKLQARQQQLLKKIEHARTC
# assay overview: fluorescence anisotropy
What Kd was measured for each of the following?
One number for each entry, in nM.

[
  {
    "binder": "UGlow RNA (ssRNA) RNA: ACAGUCCAGUCGCAGCAGACUCCCUCACAGCACCCACCUCUCCCACAAUCGGAUCCCAGG",
    "value unit": "nM",
    "Kd": 511
  }
]

Let's switch to this binder now.
Item under review: UGhigh RNA (ssRNA) RNA: UGCUGGGAUGGUCAUGGUGGGUGACCCUGGGAUGGCCGCGGUGGGUGACCCUGGAAUGGU . Reported Kd?
175
